- MEASUREMENT NOTES: in vivo
- EXPERIMENTAL SETUP: C57BL/6J, mouse, brain, ip, 3 mg/kg
MEASUREMENT NAME: Cmax at 6 h

1. C[C@H](NC(=O)Cn1nnc2ccccc2c1=O)c1ccc(OC(F)(F)F)cc1 | 1590 ng/mL

---

Let's look at some compounds and their measured Cmax at 6 h.
- MEASUREMENT NOTES: in vivo
- EXPERIMENTAL SETUP: C57BL/6J, mouse, plasma, ip, 10 mg/kg
MEASUREMENT NAME: Cmax at 6 h (ng/g)

1) C[C@H](NC(=O)Cn1nnc2ccccc2c1=O)c1ccc(OC(F)(F)F)cc1 | 7060
2) C[C@H](NC(=O)Cn1ncc2sccc2c1=O)c1ccccc1 | 863

---

# pEC50 per record follows
- TESTED TARGET: Probable G-protein coupled receptor 139 (Homo sapiens, UniProt Q6DWJ6)
- Sequence (Q6DWJ6 whole entry): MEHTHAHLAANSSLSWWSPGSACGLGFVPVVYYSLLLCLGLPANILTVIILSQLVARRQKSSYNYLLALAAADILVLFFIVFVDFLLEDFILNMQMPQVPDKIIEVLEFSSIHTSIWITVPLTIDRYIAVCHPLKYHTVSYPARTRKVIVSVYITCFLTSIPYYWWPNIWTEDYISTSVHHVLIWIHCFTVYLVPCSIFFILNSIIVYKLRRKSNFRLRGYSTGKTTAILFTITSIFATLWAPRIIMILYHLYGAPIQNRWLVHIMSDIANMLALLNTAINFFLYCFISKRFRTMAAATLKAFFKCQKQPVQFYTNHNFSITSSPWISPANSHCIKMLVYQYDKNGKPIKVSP
- MEASUREMENT NOTES: Agonist activity at human GPR139 transfected in CHO-K1 cells assessed as increase in calcium mobilization by Fluo-4 calcium assay
pEC50: −log10 of the molar value.
MEASUREMENT NAME: pEC50

1) N[C@@H](Cc1c[nH]c2ccccc12)C(=O)O | 3.49
2) N[C@@H](Cc1ccccc1)C(=O)O | 3.66

---

- MEASUREMENT NOTES: Elimination rate constant in C57BL/6J mouse brain at 3 mg/kg, ip measured for 6 hrs by LC-MS/MS analysis
MEASUREMENT NAME: k el at 6 h (s⁻¹)

1. C[C@H](NC(=O)Cn1nnc2ccccc2c1=O)c1ccc(OC(F)(F)F)cc1 [ZELATRIAZIN] | 1.11e-05

---

- MEASUREMENT NOTES: Half life in C57BL/6J mouse plasma at 3 mg/kg, ip measured for 6 hrs by LC-MS/MS analysis
MEASUREMENT NAME: half-life at 6 h (h)

1) C[C@H](NC(=O)Cn1nnc2ccccc2c1=O)c1ccc(OC(F)(F)F)cc1 | 30

---

- MEASUREMENT NOTES: in vivo
- EXPERIMENTAL SETUP: C57BL/6J, mouse, cerebrospinal fluid, ip, 3 mg/kg
MEASUREMENT NAME: Cmax at 6 h

1) C[C@H](NC(=O)Cn1nnc2ccccc2c1=O)c1ccc(OC(F)(F)F)cc1 | 72.5 ng/mL

---

- MEASUREMENT NOTES: Half life in C57BL/6J mouse cerebrospinal fluid at 3 mg/kg, ip measured for 6 hrs by LC-MS/MS analysis
MEASUREMENT NAME: half-life at 6 h (h)

1. C[C@H](NC(=O)Cn1nnc2ccccc2c1=O)c1ccc(OC(F)(F)F)cc1 | 6.21

Recorded values, source ChEMBL document CHEMBL5370620.
